MEASURED_TARGET: recombinant full-length Pfs48/45 (Plasmodium falciparum 3D7, UniProt Q8I6T1)
Sequence (Q8I6T1 28-428): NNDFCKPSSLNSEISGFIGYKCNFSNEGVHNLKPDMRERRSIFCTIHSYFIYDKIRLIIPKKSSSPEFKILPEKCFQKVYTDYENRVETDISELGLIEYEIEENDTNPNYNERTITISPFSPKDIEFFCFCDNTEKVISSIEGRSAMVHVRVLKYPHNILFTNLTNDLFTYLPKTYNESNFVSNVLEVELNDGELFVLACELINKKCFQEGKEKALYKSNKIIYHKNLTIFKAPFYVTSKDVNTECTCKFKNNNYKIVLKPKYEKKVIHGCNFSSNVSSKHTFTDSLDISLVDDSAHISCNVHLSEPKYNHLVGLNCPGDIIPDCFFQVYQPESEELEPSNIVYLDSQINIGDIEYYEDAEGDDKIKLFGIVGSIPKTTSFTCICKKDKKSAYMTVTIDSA
TEST_NAME: ELISA
ASSAY_CONTEXT: both partners purified
REPORTED_METRIC: binding result

RUPA-108 (antibody, V domains shown, human IgG1; source: recombinant human IgG1, 293T (Protein A purified) or GenScript) VH: EVVLVESGGGLIQPGGSLRLSCAASGFTVSSSYMSWVRQAPGKGLEWVSVIYSGAGGGSIYYADSVKGRFTISRDNLKNTLYLQMNSLRVEDAAVYYCVRDSRGWGYFDDWGQGTLVTVSS VL: EIILTQSPGTLSLSPGERATLSCRASQSIRTNYLAWYQRKPGQTPRLLIYGASSRATGIPDRFSGSGSGTDFTLTISRLEPEDFAEYFCQQYQNSPWTFGQGTIVEIK | binds
RUPA-89 (antibody, V domains shown, human IgG1; source: recombinant human IgG1, 293T (Protein A purified) or GenScript) VH: DVYLLESGGGLVQPGGSLRLSCAASGFTFSNDAMSWVRQAPGKGLEWVSGILASAPRTYYADSVKGRFIISRDNSKNTLYLQMNSLRVEDTAIYYCAKEGILRPFDPWGQGTLVTVSS VL: QSALTQPASMSGSPGQSITISCTGTSSDVGGFKYVSWYQHHPDKAPKLIIYEVNQRPSGVSNRFSGSKSGNTASLTISGLQAEDEADYYCSSYTSITYHHVFGTGTKVTVL | binds
RUPA-94 (antibody, V domains shown, human IgG1; source: recombinant human IgG1, 293T (Protein A purified) or GenScript) VH: QVQLRESGPGLVKPSETLSLTCSVSGGSITSSPYYWAWIRQPPGKGLEWIGSIYYSGGAYYNPSLKSRVTMSVDTSKNQFSLKVNSVTAADTAVYYCARRPNPGFWGGGYYFDYWGQGTLVTVSS VL: QSALTQPASVSGSPGQSITISCTGSSSDVGSYNLVSWYQHHPGKAPKLMISEVSKRPSGVSDRFSGSKSGNTASLTISGLQAEDEADYYCCSYADSSTRNYVFGTGTKVTVL | binds

Values compiled from paper PMC9942873.
